- Target desc: UniProtKB P23739
- Sequence (P23739 whole entry): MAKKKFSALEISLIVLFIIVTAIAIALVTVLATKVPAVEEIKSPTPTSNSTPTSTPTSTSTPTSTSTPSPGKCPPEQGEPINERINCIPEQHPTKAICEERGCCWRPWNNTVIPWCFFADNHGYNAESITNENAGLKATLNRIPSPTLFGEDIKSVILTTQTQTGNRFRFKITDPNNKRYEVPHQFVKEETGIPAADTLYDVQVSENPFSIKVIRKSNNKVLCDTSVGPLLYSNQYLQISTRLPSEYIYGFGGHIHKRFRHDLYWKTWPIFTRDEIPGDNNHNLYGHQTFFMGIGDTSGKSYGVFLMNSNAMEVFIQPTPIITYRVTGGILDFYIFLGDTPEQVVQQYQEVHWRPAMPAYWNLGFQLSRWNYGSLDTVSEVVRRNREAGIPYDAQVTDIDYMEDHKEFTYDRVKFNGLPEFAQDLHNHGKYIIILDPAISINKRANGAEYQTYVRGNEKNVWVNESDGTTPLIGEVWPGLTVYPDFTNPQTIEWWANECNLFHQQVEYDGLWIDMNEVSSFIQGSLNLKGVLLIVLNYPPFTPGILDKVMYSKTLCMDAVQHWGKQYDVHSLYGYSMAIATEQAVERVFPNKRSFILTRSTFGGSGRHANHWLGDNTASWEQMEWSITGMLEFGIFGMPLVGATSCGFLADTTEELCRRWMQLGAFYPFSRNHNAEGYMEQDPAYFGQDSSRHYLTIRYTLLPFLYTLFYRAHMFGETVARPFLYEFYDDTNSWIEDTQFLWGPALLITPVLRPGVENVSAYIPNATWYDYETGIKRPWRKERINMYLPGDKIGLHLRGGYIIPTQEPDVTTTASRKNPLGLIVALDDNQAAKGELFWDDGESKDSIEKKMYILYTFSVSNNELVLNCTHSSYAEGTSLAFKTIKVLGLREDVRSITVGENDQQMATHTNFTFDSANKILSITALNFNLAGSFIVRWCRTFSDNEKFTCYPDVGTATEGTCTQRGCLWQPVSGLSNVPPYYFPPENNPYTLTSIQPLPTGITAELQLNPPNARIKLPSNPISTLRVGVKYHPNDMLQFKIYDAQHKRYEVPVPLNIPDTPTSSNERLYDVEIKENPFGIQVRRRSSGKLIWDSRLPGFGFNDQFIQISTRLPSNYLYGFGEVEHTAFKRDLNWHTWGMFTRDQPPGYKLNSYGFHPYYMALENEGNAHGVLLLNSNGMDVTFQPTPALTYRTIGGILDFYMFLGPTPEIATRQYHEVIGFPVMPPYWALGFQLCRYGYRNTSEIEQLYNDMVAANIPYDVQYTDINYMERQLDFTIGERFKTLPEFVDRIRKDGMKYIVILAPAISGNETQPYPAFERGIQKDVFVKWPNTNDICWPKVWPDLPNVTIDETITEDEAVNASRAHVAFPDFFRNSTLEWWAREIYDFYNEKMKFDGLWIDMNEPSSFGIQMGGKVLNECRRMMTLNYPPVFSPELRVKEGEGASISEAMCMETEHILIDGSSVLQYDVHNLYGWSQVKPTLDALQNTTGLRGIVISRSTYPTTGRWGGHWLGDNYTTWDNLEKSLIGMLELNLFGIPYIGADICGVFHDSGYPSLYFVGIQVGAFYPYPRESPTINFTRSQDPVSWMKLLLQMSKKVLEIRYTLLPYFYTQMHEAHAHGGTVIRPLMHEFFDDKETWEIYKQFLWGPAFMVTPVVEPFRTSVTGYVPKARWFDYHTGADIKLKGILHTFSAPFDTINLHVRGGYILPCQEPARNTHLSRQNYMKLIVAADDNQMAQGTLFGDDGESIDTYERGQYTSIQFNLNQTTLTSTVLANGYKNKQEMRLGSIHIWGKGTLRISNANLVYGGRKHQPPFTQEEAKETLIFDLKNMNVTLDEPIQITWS
pIC50: −log10 of the molar value.
So basically: pIC50 at 7 or higher? That is label 1. Lower than 7? That is label 0.

Entry smiles	Target desc	Class
Cc1cc(NCc2ccc(CN3C[C@H](O)[C@@H](O)[C@H](O)[C@H]3CO)cc2)cc(-c2cccnn2)c1	UniProtKB P23739	label 1
CC#Cc1ccc(NCCCCCCN2C[C@H](O)[C@@H](O)[C@H](O)[C@H]2CO)c([N+](=O)[O-])c1	UniProtKB P23739	label 1
N#Cc1cc(NCc2ccc(CN3C[C@H](O)[C@@H](O)[C@H](O)[C@H]3CO)cc2)cc(-c2ncccn2)c1	UniProtKB P23739	label 1
CC(C)(C)c1cc(NCCCCCCN2C[C@H](O)[C@@H](O)[C@H](O)[C@H]2CO)cc(-c2ncccn2)c1	UniProtKB P23739	label 1
OC[C@@H]1[C@@H](O)[C@H](O)[C@@H](O)CN1CCc1ccc(CCNc2cc(Cl)cc(-c3cccnn3)c2)cc1	UniProtKB P23739	label 0
[N-]=[N+]=Nc1ccc(NCCN2CCN(CCN3C[C@H](O)[C@@H](O)[C@H](O)[C@H]3CO)CC2)c([N+](=O)[O-])c1	UniProtKB P23739	label 0
Cc1cc(Br)cc(NCc2cccc(CN3C[C@H](O)[C@@H](O)[C@H](O)[C@H]3CO)c2)c1	UniProtKB P23739	label 1
OC[C@@H]1[C@@H](O)[C@H](O)[C@@H](O)CN1CCCCCCNc1cc(-c2ncccn2)cc(C(F)(F)F)c1	UniProtKB P23739	label 1
O=[N+]([O-])c1cc(-c2ncc[nH]2)ccc1NCCc1ccc(CCN2C[C@H](O)[C@@H](O)[C@H](O)[C@H]2CO)cc1	UniProtKB P23739	label 0
O=[N+]([O-])c1cc(-c2ccc[nH]2)ccc1NCc1cccc(CN2C[C@H](O)[C@@H](O)[C@H](O)[C@H]2CO)c1	UniProtKB P23739	label 1
COc1cc(NCCCCCCN2C[C@H](O)[C@@H](O)[C@H](O)[C@H]2CO)cc(C2=CCCO2)c1	UniProtKB P23739	label 1
[N-]=[N+]=Nc1ccc(NCCC23CC(CCN4C[C@H](O)[C@@H](O)[C@H](O)[C@H]4CO)(C2)C3)c([N+](=O)[O-])c1	UniProtKB P23739	label 0
